Tested on: DDR1
particulars: concentration: 1 μM, replicates: in singlicate; n = 1;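 note: KINOMEscan kinase panel screen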
metric: %Inh (%)
I only need the number, in %, no unit after it.

Request: Give recorded %Inh with DDR1 for the following compound: `CNc1nc(-c2ccc3c(N)n[nH]c3c2)cc(N2C[C@@H](C(=O)Nc3ccccc3)CC[C@H]2C)n1`
Response: 6

Request: Same lookup for `CSc1ccc(-c2nc3n(c2-c2ccncc2)CCC3)cc1` , please.
Response: 75

Request: Now give it for `CCCCc1nn2ncccc2c1-c1ccnc(NC2CC2)n1` too.
Response: 67

---

Provide the reported %Inh of each item.
System: PAK1
particulars: concentration: 1 μM, replicates: in singlicate; n = 1
Please answer using the number first and the unit second.

Request: Under PAK1: %Inh value of `O=C1NC(=O)C(c2ccc(Cl)cc2)=C1Nc1ccc(O)cc1` ?
Response: 0%

Request: Consider next the compound COc1ccc(Nc2nccc(N3CCC(NC(=O)C(C)c4ccc(Cl)cc4)CC3)n2)cc1 (stereo not drawn) in the same way.
Response: 21%

Request: Now consider O=C(Nc1n[nH]c2nc(-c3ccco3)c(Br)cc12)C1CCN(Cc2ccccc2)C1.O=C(O)[C@H](O)[C@@H](O)C(=O)O (stereo not drawn) .
Response: 3%
